Test system: Zinc finger protein mex-5 (Caenorhabditis elegans, UniProt Q9XUB2)
Sequence (Q9XUB2 whole entry): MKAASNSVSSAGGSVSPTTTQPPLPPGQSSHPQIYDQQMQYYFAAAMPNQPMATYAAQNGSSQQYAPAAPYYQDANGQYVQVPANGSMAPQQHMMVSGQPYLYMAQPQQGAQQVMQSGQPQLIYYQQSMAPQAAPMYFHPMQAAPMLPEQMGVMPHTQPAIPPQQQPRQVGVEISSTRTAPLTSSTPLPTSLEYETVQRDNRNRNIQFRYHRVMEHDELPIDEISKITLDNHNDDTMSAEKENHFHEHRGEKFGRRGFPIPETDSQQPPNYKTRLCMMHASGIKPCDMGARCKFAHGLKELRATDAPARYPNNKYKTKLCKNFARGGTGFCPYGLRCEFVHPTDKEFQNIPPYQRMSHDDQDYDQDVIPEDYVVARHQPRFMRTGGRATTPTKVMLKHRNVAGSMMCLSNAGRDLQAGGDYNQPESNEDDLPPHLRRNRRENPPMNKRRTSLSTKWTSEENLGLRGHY
Experiment: potency of MEX-5 RNA-binding blockers – biochemical, C. elegans, fluorescence polarization, dose response (AID 1960)
The source made the active and inactive calls.
Record form. Attribute: EC50. Fill in for each entry.

Noted for `CCOc1cc2c(cc1/C=C(/C#N)c1ccc(C(=O)O)cc1)OCO2` : its EC50 reads > 300 µM (not active)

EC50 in this record for `CN1CCN(C2=C(Cl)C(=O)C(c3cnc(N4CCCCC4)s3)=C(Cl)C2=O)CC1` : 4.18 µM (active)

// recorded EC50 for CN(C)C1C(=O)C(C(N)=O)=C(O)C2(O)C(O)=C3C(=O)c4c(O)cccc4C(C)(O)C3C(O)C12 (stereo not given) : 29.9 µM (inconclusive)

Lab note: `O=C(Nc1nccs1)c1ccc(-c2ccc([N+](=O)[O-])cc2)o1` gave EC50 of 6.66 µM (active)

Value of EC50 reported for the compound CCOC(=O)/C=c1\s/c(=C\c2ccc3cc(OC)ccc3c2)c(=O)n1CC(=O)NCC1CCCO1 (stereo not given) is > 300 µM (not active)

###

Experiment: blockers of CRF-binding protein–CRF-R2 complex – cell-based, uHTS hits, 384-well, dose response (AID 651639)
Format: functional, Homo sapiens
Protocol conditions: read-out: IC50_Mean
Calls of active or inactive are those of the source.
Result category, one only: active, inactive

Status in this test for `O=[N+]([O-])c1cc(-c2ccccc2)cc([N+](=O)[O-])c1O` ? inactive

Give the logged outcome of this assay for the following molecule: `COC(=O)C1=CN(Cc2ccc(OC)cc2)C=C(C(=O)OC)C1c1cccs1` inactive

Can you look up the reported call for `Cc1ccc(NC(=O)Cn2ncn3c(cc4ccccc43)c2=O)cc1F` for me? active

Outcome logged for `CCOC(=O)C(CCCCOc1ccc([N+](=O)[O-])cc1)C(=O)OCC` in this assay: inactive

Kindly provide the recorded test outcome for the following molecule: `COc1ccc(NC(=O)CCCCC(=O)Nc2ccc(OC)cc2OC)c(OC)c1` inactive

Hello, I am checking results. What call was entered for CCCCCCCCCCCC(=O)NC(Cc1ccc(OC)c([N+](=O)[O-])c1)C(=O)O (stereo not drawn) ? inactive

Given `Cc1ccc(S(=O)(=O)N(Cc2ccccc2)c2ccccc2C(=O)NCc2ccco2)cc1` , state the outcome it received in this test. active

Would you mind telling me which call this test gave COc1ccc(C2N(Cc3ccccc3)CC(=O)N2/N=C(\C)c2ccccc2)cc1 (stereo not drawn) ? active

###

Test system: Heat shock factor protein 1 (Mus musculus)
Sequence (P38532 whole entry): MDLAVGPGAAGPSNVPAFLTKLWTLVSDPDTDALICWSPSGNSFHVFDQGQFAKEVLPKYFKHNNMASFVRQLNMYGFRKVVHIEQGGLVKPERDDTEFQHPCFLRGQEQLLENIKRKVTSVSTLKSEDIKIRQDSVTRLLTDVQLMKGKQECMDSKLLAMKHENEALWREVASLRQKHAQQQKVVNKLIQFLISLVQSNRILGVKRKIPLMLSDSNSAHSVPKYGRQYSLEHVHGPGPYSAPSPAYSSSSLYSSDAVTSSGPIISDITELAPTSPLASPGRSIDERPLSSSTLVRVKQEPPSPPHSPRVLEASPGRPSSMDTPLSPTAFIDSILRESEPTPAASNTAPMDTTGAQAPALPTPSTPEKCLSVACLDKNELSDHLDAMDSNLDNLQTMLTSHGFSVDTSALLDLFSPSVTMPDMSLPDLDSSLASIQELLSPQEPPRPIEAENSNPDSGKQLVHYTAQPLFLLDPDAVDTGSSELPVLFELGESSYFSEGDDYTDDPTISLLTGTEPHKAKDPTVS
Experiment: enhancement of HSF1-driven luciferase signal – cell-based, NIH3T3, luminescence, dose retest, confirmation (AID 435004);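 also: stress induced by proteasome inhibitor MG132 added 30 min after compound; luciferase reporter driven by HSF1 response element in NIH3T3 cells; actives raise luminescence as potentiators of the MG132 stress response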
Assay type: functional
The source made the active and inactive calls.
Measurement name: EC50

get_value(item= Cc1ccccc1N(C(=O)c1csnn1)C(C(=O)NC(C)(C)C)c1ccncc1 (stereo not drawn) , readout=EC50) returns > 260 µM (inactive)

Briefly, EC50 measured for `NC(=O)c1ccc(NC(=O)CC23CC4CC(CC(Br)(C4)C2)C3)cc1` : > 260 µM (inactive)

Reported EC50 of Cc1ccc(N2C(=O)CCC2(C#N)c2ccccc2)cc1 (stereo not drawn) : > 260 µM (inactive)

// field: EC50; key: `Cc1ccccc1C(=O)O/N=C1\CCS(=O)(=O)c2sccc21` ; value = 0.943 µM (active)

EC50 measured on `COc1cc(C)c(S(=O)(=O)N2CCN=C2c2ccccc2)cc1C` = > 260 µM (inactive)

EC50 for `O=C(CSc1nc2nccnc2c(=O)n1Cc1cccs1)Nc1ccccc1F` is > 260 µM (inactive)

Briefly, EC50 measured for `Cc1ccc(-c2cc(NC(=O)CCl)n(-c3ccccc3)n2)cc1` : 9.36 µM (active)

Lookup result for `COc1cccc(NC(=O)CSc2nc3c4ccccc4nc-3c(O)n2C)c1` ; measured EC50: > 260 µM (inactive)

Looking up `Cc1ccccc1C(=O)NCCOc1ccccc1Cl` , I found its EC50 recorded as 25.5 µM (active)

Consider `CCOC(=O)c1c(NC(=O)CSc2nc3ccccc3o2)sc(C)c1C` . Its measured EC50 is > 260 µM (inactive)

response.value for `CSc1nc(NC(C)(C)C)nc(Oc2ccc(O)nn2)n1` (field: EC50) = > 260 µM (inactive)

Kindly note the recorded EC50 for `COc1ccccc1CNC(=O)c1ccc(NS(=O)(=O)c2cccs2)cc1` , which is > 260 µM (inactive)

According to the records, this compound `CC(C)(C)c1cccc(/C=N/O)c1O` displays EC50 of > 260 µM (inactive)

Sourced from ChEMBL document CHEMBL1201862
